Test: Nuclear factor erythroid 2-related factor 2/antioxidant responsive element (Nrf2/ARE) small molecule agonists: qHTS cell viability counter screen in human keratinocytes (AID 1919968); further: nearly all actives have a fitted effect of over 55% in size
Conditions: KeratinoSens HaCaT ARE cells viability, CellTiter-Fluor, 24 h; series mostly up to 92.4 µM
Inconclusive results are not listed. Activity calls are given as the source filed them. The call rests on the fitted dose curve; in most records, active means well fitted cell-killing curve with a large enough effect in the repeat runs; inconclusive means weak or mixed curves, or effect the other way; inactive means flat fitted curve, though single readings scatter.
One label from this list, please: active, inactive

Example entries and their recorded answers appear below.
[
  {
    "Compound": "C=CCC1(C(C)CC)C(=O)NC(=O)NC1=O (configuration not stated)",
    "Cat": "inactive"
  },
  {
    "Compound": "C[N+](C)(C)CCCl",
    "Cat": "inactive"
  },
  {
    "Compound": "CC(CCc1ccccc1)NC(C)C(O)c1ccc(O)cc1 (configuration not stated)",
    "Cat": "inactive"
  },
  {
    "Compound": "C[C@]12Cc3nonc3C[C@@H]1CC[C@@H]1[C@@H]2CC[C@@]2(C)[C@H]1CC[C@]2(C)O",
    "Cat": "inactive"
  }
]

Could you kindly confirm the outcome this assay logged for `Cc1ccc(-c2c(Cl)nc(C#N)n2S(=O)(=O)N(C)C)cc1` ? active

Which outcome did this test record for the compound `CCCCCCCCP(=O)(O)O` ? inactive

I'd appreciate the recorded outcome for O=c1oc2ccccc2c(O)c1C1CCCc2ccccc21 (configuration not stated) from this test. inactive

Outcome logged for `C=C(C)[C@H]1CN[C@H](C(=O)O)[C@H]1CC(=O)O` in this assay: inactive

---

Target: 5-hydroxytryptamine receptor 2A (Homo sapiens) (UniProt P28223)
Sequence (P28223 whole entry, looked up): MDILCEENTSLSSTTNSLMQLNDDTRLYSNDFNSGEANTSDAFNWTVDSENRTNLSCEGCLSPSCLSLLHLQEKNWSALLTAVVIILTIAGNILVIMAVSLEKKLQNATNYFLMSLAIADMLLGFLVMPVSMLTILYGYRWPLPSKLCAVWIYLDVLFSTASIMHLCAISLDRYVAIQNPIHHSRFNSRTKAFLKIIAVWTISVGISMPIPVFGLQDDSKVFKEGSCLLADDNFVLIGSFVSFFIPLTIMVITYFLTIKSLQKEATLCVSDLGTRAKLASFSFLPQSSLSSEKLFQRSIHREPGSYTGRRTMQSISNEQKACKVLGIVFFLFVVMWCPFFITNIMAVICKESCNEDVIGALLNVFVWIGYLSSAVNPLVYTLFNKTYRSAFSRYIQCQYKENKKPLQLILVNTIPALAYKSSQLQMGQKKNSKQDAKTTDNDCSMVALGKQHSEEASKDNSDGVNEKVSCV
Experiment: 5-hydroxytryptamine receptor 2A (HTR2A) small molecule agonists, cell-based qHTS assay (AID 1963587); further: on the % scale 0 is the no-effect control and ±100 the full control effect; nearly all actives have a fitted effect of over 30% in size
Conditions: HTR2A-CHO cells, calcium flux fluorescence, agonist mode; series mostly up to 76.8 µM
Method: National Center for Advancing Translational Sciences [NCATS] Division of Preclinical Innovation [DPI] U.S. Environmental Protection Agency [EPA] National Institutes of Environmental Health Sciences [NIEHS] National Toxicology Program [NTP] […] HTR2A-CHO cells were dispensed at 2000 cells/3uL/well in 1536-well black-clear bottom plates using a Multidrop Dispenser. […] The fluorescence intensity in the plates was measured using FDSS 7000EX kinetic plate reader for 2 min at 1 sec intervals.
Results filed as inconclusive are left out. The source made the active and inactive calls. Calls come from the whole dose curve.
Property Name: activation

Recorded results for 3 compounds are shown here.
[
  {
    "Smiles": "Cc1ccc2nc3sc(=O)sc3nc2c1",
    "Tested System": "5-hydroxytryptamine receptor 2A (Homo sapiens) (UniProt P28223)",
    "activation": "-3.01% [at 15.9 µM] (inactive)"
  },
  {
    "Smiles": "CCCCCCCCCCCCN=C(N)N",
    "Tested System": "5-hydroxytryptamine receptor 2A (Homo sapiens) (UniProt P28223)",
    "activation": "-1.31% [at 2.65 µM] (inactive)"
  },
  {
    "Smiles": "CC1=C(C(=O)O)N2C(=O)[C@@H](N)[C@H]2SC1",
    "Tested System": "5-hydroxytryptamine receptor 2A (Homo sapiens) (UniProt P28223)",
    "activation": "1.93% [at 15.9 µM] (inactive)"
  }
]

What value of measured activation is listed for `Clc1c(Cl)c(Cl)c(Cl)c(Cl)c1Cl` ? -3.36% [at 7.02 µM] (inactive)

Give its activation value. Item: `CN(C)C(=S)[S-].CN(C)C(=S)[S-].[Cu+2]` 16.6% [at 15.9 µM] (inactive)

Please look up its activation: `Nc1c(Br)cc(Br)c2c1C(=O)c1ccccc1C2=O` -1.81% [at 15.9 µM] (inactive)

I would be grateful if you could share the reported activation for `CC(=O)OCC1=C(C(=O)O)N2C(=O)[C@@H](N)[C@H]2SC1` . 1.54% [at 15.9 µM] (inactive)

Return reported activation; argument: `CCCCCCC(=O)CCCCCC/C=C/C[C@@H](O)[C@H](O)[C@@](N)(CO)C(=O)O` 2.62% [at 15.9 µM] (inactive)

Any idea what its activation is? The compound is `O=C1c2ccccc2C(=O)c2ccccc21` -4.26% [at 15.9 µM] (inactive)

---

Test: Nuclear factor erythroid 2-related factor 2/antioxidant responsive element (Nrf2/ARE) small molecule agonists: qHTS cell viability counter screen in human keratinocytes (AID 1919968); further: nearly all actives have a fitted effect of over 55% in size
Details: KeratinoSens HaCaT ARE cells viability, CellTiter-Fluor, 24 h; series mostly up to 92.4 µM
Results filed as inconclusive are left out. The source made the active and inactive calls. Calls come from the whole dose curve; as a rule, active = well fitted cell-killing curve with a large enough effect in the repeat runs; inconclusive = weak or mixed curves, or effect the other way; inactive = flat fitted curve, though single readings scatter.
Can you answer with just one of these options? active, inactive

Known results for compounds:
[
  {
    "Compound": "Oc1ccc(Cc2ccc(O)cc2)cc1",
    "Cat": "inactive"
  },
  {
    "Compound": "CN1C(=S)CN=C(c2ccccc2)c2cc(Cl)ccc21",
    "Cat": "inactive"
  },
  {
    "Compound": "CC1=C2C[C@H]3[C@@H](CC=C4C[C@@H](O)CC[C@@]43C)[C@@H]2CC[C@]12O[C@@H]1C[C@H](C)CN[C@H]1[C@H]2C",
    "Cat": "active"
  },
  {
    "Compound": "COC(=O)C1=CCCN(C)C1",
    "Cat": "inactive"
  },
  {
    "Compound": "CCCCC(=O)Cl",
    "Cat": "inactive"
  },
  {
    "Compound": "Nc1n[nH]c(N)n1",
    "Cat": "inactive"
  }
]

# outcome recorded in this test, key = `Oc1cccc(-c2ccccc2)c1` inactive

Which outcome was entered for the compound `CCCCOC(=O)c1ccccc1N` in this test? inactive

Query: recorded result category for C[N+]1(C)[C@@H]2CC[C@H]1CC(OC(=O)C(CO)c1ccccc1)C2 (stereo partly drawn) in this test inactive

Any idea what this test logged for c1ccc(OCC2CO2)cc1 (stereo not drawn) ? inactive

GET /call?item= `CCOCn1c(-c2ccc(Cl)cc2)c(C#N)c(Br)c1C(F)(F)F` returns the recorded outcome of this test. active

Dear all, I need the recorded test outcome for `CCCCN(CCCC)C(=S)[S-].CCCCN(CCCC)C(=S)[S-].[Ni+2]` , thank you. active

What did this assay record as the result for `NCC1(CC(=O)O)CCCCC1` ? inactive

---

Test: p53 small molecule agonists, cell-based qHTS assay with human liver microsomes (AID 1963577);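 further: p53 response element beta-lactamase reporter cells with liver microsomes plus NADPH; on the % scale 0 is the no-effect control and ±100 the full control effect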
Conditions: HCT-116 p53RE-bla with human liver microsomes, ratio, 16 h; series mostly up to 66 µM
Records with an inconclusive call do not appear. Activity calls are given as the source filed them. The call rests on the fitted dose curve.
Property Name: activation

[
  {
    "Compound": "CC(C)(c1cc(Cl)c(O)c(Cl)c1)c1cc(Cl)c(O)c(Cl)c1",
    "activation": "inactive"
  },
  {
    "Compound": "O=C(NC(=O)c1c(F)cccc1F)Nc1cc(Cl)c(Oc2ncc(C(F)(F)F)cc2Cl)c(Cl)c1",
    "activation": "inactive"
  },
  {
    "Compound": "O=C(CCCN1CCC(n2c(=O)[nH]c3ccccc32)CC1)c1ccc(F)cc1",
    "activation": "inactive"
  },
  {
    "Compound": "C/C(=C\\c1ccccc1)[N+](=O)[O-]",
    "activation": "inactive"
  },
  {
    "Compound": "CCN1CCCC1CNC(=O)C(O)(c1ccccc1)c1ccccc1 (stereo unspecified)",
    "activation": "inactive"
  }
]

Record request: activation value, item c1ccc2c(c1)OCC(C1=NCCN1)O2 (stereo unspecified) inactive

---

Target: 5-hydroxytryptamine receptor 2A (Homo sapiens) (UniProt P28223)
Assay: 5-hydroxytryptamine receptor 2A (HTR2A) small molecule antagonists, cell-based qHTS assay (AID 1963586); further: on the % scale 0 is the no-effect control and ±100 the full control effect; nearly all actives have a fitted effect of over 45% in size
Details: HTR2A-CHO cells, DOI-induced calcium flux, fluorescence; series mostly up to 61.5 µM
Inconclusive results are not listed. Activity calls are given as the source filed them. The call rests on the fitted dose curve.
Could you please pick one outcome from this set? t (active), f (inactive)

Below are worked cases with known answers.
[
  {
    "Molecule": "CC(=O)O.CC(=O)O.CC(=O)O.CC(=O)O.CC(=O)O.CC(=O)O.CC(=O)O.O.O.[Cr].[Cr].[Cr]",
    "Cat": "f"
  },
  {
    "Molecule": "Nc1ccccc1C(=O)Oc1ccc2ccccc2c1",
    "Cat": "f"
  },
  {
    "Molecule": "CC1Sc2c(C(=O)O)c(=O)c3cc(F)c(N4CCNCC4)cc3n21 (stereo unspecified)",
    "Cat": "f"
  }
]

Test call for this molecule, please: `COc1ccc([N+](=O)[O-])cc1O` f

I would be grateful if you could indicate the recorded call for `COc1cccc(C(=O)NN(C(=O)c2cc(C)cc(C)c2)C(C)(C)C)c1C` . f

Outcome logged for `CCOP(=O)(OCC)Oc1nc(Cl)c(Cl)cc1Cl` in this assay: f

---

Experiment: Nuclear factor erythroid 2-related factor 2/antioxidant responsive element (Nrf2/ARE) small molecule agonists: luciferase reporter gene qHTS assay in human keratinocytes (AID 1919969); further: nearly all actives have a fitted effect of over 35% in size
Conditions: KeratinoSens HaCaT ARE-luciferase, luminescence, 24 h; series mostly up to 92.4 µM
Inconclusive results are not listed. Activity calls are given as the source filed them. The call rests on the fitted dose curve.
Outcome (select one): true for active, false for inactive

Field: example entries. Status: answers known.
[
  {
    "Compound": "CNC(C)Cc1ccccc1OC (centres undefined)",
    "Cat": "false"
  },
  {
    "Compound": "Nc1ccc([N+](=O)[O-])cc1",
    "Cat": "true"
  },
  {
    "Compound": "O=C(CCCCl)c1ccc(F)cc1",
    "Cat": "false"
  },
  {
    "Compound": "ClC(Cl)=C(c1ccc(Cl)cc1)c1ccccc1Cl",
    "Cat": "false"
  },
  {
    "Compound": "CC(=O)NC1CCSC1=O (centres undefined)",
    "Cat": "false"
  }
]

Switching to the query record.
What is the recorded call for this compound in the test? `C[N+](C)(C)CCCl` false
